B1: IQUB (parent)
chain: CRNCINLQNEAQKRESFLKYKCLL

Variants of: B1
Assay: protein stability index of a GFP-peptide fusion (GPS, HEK-293T) (PSI 1-6); higher = more stable;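 note: lentivirally expressed fusions sorted by FACS into six bins by GFP to DsRed ratio, PSI derived from sequencing read proportions per bin multiplied by bin number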
Conditions: c terminus: a fixed tail appended
Quick rule: protein stability index of at least 2 means satisfied, below that means not satisfied.

Changes: Q8L
Cat: satisfied
//
Changes: Q8H
Cat: satisfied
//
Changes: R14M
Cat: not satisfied
//
Changes: C1N
Cat: satisfied
//
Changes: Q12W
Cat: satisfied

stdin: # bool: protein stability index of "K13V" >= 2
stdout: not satisfied

stdin: For this variant, is measured protein stability index 2 or higher? "S16D"
stdout: satisfied

Origin of values: the supplement of paper PMC10567573
